# Tested on: MILI (PIWIL2) piRISC loaded with piRNA #1 (26 nt);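 also: 1 nM active piRISC with 0.1 nM target library at 33 °C single turnover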
# measurementDescription: pre-steady-state target cleavage rate (min^-1); guide: piRNA #1 5'p-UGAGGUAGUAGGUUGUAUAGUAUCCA; higher = faster piRNA-guided slicing of the target
# studyConditions: auxiliary factor: 500 nM mouse GTSF1
Threshold check on pre-steady-state target cleavage rate: at or above 0.03 gives true, strictly below gives false.

Prompt: Confirm if pre-steady-state target cleavage rate reported for the sequence `GGAGACCUUACUAUACAUCCUACUACGUCA` is 0.03 or above.
Completion: true

Prompt: hey, is pre-steady-state target cleavage rate for this one >= 0.03? `GGAGACCUAUGAUAUGAACUACUACCUCA`
Completion: false

Attention now turns to another entry.
Prompt: I'd appreciate it if you could say whether `GGAGUGGAUUCUAUACAUCCUACUACCUCA` has pre-steady-state target cleavage rate at least equal to 0.03.
Completion: true

###

# System: MILI (PIWIL2) piRISC loaded with piRNA #1 (26 nt);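 also: 1 nM active piRISC with 0.1 nM target library at 33 °C single turnover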
# measurementDescription: pre-steady-state target cleavage rate (min^-1); guide: piRNA #1 5'p-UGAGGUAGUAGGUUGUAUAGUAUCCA; higher = faster piRNA-guided slicing of the target
# studyConditions: auxiliary factor: 500 nM mouse GTSF1
valueKind: pre-steady-state target cleavage rate
Field format: numeric only.

Quick note, pre-steady-state target cleavage rate for `GGAGAGGAUACUACACAACCUACUACCUCA` landed at 0.193

Reported pre-steady-state target cleavage rate of `GGAGAGAGAUACUAUACAACCUACUACCUCA` : 0.201

The sequence listed as `GGAGACCUUACAAAACAACCUACUACCUCA` has a reported pre-steady-state target cleavage rate of 0.00897

// field: pre-steady-state target cleavage rate; key: `GGAGAGGUUACUAUAGAACCUACUACCUCA` ; value = 0.157

The reported pre-steady-state target cleavage rate of the sequence `GGAGACCUAACUAUUCAACCUACUACCUCA` was 0.138

---
Input `GGAGAGGAUACCAUACAACCUACUACCUCA` . Output pre-steady-state target cleavage rate: 0.167

Quick note, pre-steady-state target cleavage rate for `GGAGAGGAUACUAUACAACCUACUACUCA` landed at 0.109

Looking up `GGAGUGGAUACUAUACAUCCUUCUACCUCA` , I see its pre-steady-state target cleavage rate listed as 0.0293

Given item `GGAGACCUAUCUUACAACCUACUACCUCA` , the value recorded as its pre-steady-state target cleavage rate is 0.0336

###

# Test system: MILI (PIWIL2) piRISC loaded with L1MC piRNA (26 nt);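 also: 1 nM active piRISC with 0.1 nM target library at 33 °C single turnover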
# measurementDescription: pre-steady-state target cleavage rate (min^-1); guide: L1MC piRNA 5'p-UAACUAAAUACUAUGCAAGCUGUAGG; MIWI and MILI are mouse PIWI proteins and EfPiwi is from a freshwater sponge; tags in brackets are library labels; higher = faster piRNA-guided slicing of the target
# studyConditions: auxiliary factor: 500 nM mouse GTSF1
Where pre-steady-state target cleavage rate equals or exceeds 0.1, the correct label is 1 (yes); where it does not, the label is 0 (no).

Prompt: Determine whether this sequence has pre-steady-state target cleavage rate no lower than 0.1: `UCCUGGAACAGCUUGCAUAGUAAAUAGAAA`
Completion: 0 (no)

Prompt: # bool: pre-steady-state target cleavage rate of `UCCUGGAACAGCAUGCAUAGUAUUUAGAUA` >= 0.1
Completion: 1 (yes)

Prompt: Can `UCCUGCUACAGCUUGCAUUGUAUUUAGAUA` be said to have pre-steady-state target cleavage rate at or above 0.1?
Completion: 1 (yes)

Next:
Prompt: Answer whether pre-steady-state target cleavage rate of `UCCUGGAUGUCGAUGCAUAGUAUUUACGUUA` is greater than or equal to 0.1.
Completion: 1 (yes)

Prompt: Has `UCCUCCUACAGCUUGCUUAGUUUUUAGUUA` a recorded pre-steady-state target cleavage rate greater than or equal to 0.1?
Completion: 0 (no)
